assay: Metabolic stability in human liver microsomes assessed as intrinsic clearance; assay type: ADME, Microsome; settings: read-out: CLH
measuredProperty: CLint scaled

Worked set:
COc1ncc(-n2c(C(=O)N3CC(F)C3)cc3cccnc32)cc1Cl < 23.1 mL/min/kg
O=C(c1cc2cccnc2n1-c1ccnc(F)c1)N1CC(F)C1 < 23.1 mL/min/kg

Need CLint scaled, item COc1c(F)cc(-n2c(C(=O)N3CC(F)C3)cc3cccnc32)cc1F
< 23.1 mL/min/kg

----------
assay: Metabolic stability in mouse liver microsomes assessed as intrinsic clearance; format: ADME, Microsome; details: read-out: CLH
Attribute: CLint scaled

Worked set:
O=C(c1cc2cccnc2n1-c1ccnc(F)c1)N1CC(F)C1 < 49.5 mL/min/kg
N#Cc1c(F)cc(-n2c(C(=O)NC3CC3)cc3cccnc32)cc1F < 49.5 mL/min/kg

Need CLint scaled, item COc1c(F)cc(-n2c(C(=O)N3CC(F)C3)cc3cccnc32)cc1F
< 49.5 mL/min/kg

----------
Attribute: inhibition
biological target: 3',5'-cyclic-AMP phosphodiesterase 4B (Homo sapiens, UniProt Q07343); experiment: Inhibition of recombinant human C-terminal His-tagged N-terminal GST-tagged PDE4B2 expressed in baculovirus infected Sf9 cells at 10 uM by radioligand binding assay relative to control
Sequence (Q07343 whole entry): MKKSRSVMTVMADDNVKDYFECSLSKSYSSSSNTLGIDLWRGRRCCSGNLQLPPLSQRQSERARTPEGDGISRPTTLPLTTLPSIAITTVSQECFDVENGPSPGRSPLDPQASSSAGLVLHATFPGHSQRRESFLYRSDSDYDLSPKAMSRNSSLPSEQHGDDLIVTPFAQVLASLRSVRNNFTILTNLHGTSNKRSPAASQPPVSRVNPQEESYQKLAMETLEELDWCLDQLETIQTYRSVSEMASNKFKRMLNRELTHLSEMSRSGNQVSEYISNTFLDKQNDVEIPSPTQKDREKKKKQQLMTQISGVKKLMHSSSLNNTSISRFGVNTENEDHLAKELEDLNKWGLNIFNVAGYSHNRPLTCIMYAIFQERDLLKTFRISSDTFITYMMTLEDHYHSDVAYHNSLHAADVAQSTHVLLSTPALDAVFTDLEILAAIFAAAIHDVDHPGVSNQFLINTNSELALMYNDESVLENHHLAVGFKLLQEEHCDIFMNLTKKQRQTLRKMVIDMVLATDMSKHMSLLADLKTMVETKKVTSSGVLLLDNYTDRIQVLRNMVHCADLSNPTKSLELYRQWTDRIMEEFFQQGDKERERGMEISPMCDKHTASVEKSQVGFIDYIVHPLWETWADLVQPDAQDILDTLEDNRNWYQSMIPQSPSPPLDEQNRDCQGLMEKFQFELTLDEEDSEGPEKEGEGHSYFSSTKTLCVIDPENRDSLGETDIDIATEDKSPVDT
Write down the numeric answer in % and omit the unit.

Worked set:
N#Cc1c(F)cc(-n2c(C(=O)NC3CC(F)(F)C3)cc3cccnc32)cc1F 47
O=C(c1cc2cccnc2n1-c1ccc(Cl)c(F)c1)N1CC(F)(F)C1 48

Would you kindly look at the next entry?
Need inhibition, item O=C(c1cc2cccnc2n1-c1cc(F)c(Cl)c(F)c1)N1CC(F)(F)C1
48
